Quick reference: inhibition at 4 µM of the listed items.
- TGT: mOREG (Mus musculus)
- Sequence (Q920P2 1-313): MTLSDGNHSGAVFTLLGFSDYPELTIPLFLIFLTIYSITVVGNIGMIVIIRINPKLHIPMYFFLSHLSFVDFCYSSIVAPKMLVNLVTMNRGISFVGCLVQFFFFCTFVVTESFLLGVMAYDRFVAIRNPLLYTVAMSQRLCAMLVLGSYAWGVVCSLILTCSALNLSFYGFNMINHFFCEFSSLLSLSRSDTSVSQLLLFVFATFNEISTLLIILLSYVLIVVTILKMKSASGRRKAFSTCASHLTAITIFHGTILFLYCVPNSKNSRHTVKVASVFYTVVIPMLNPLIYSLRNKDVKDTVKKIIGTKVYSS
- TEST: Ca2+-imaging, control receptor mOREG
- Assay type: cell-based
- COND: compound applied at 4 μM; read-out: Percent Inhibition mOREG
- Method: Stable cell lines were cultured in 10 cm dishes, and confluent cells (70-80%) were trypsinized. 10,000 cells/20 μL were transferred into each well of 384-well plates coated with poly-D-lysine, and cultured for 2 days. […] 20 μL of Ca-4 dye was loaded into each well for 1.5 hr at room temperature in the dark, and the dye-loaded plates were subjected to Ca^2+-imaging using a Hamamatsu FDSS6000 real time fluorescence plate reader. […]

COMPOUND | inhibition at 4 µM
CCOC(=O)C1CCCN(C(=O)c2csc(CSc3nnc(-c4cccc(OC)c4)n3-c3ccc(C)cc3)n2)C1 (centres unmarked) | 26 to 50%
Cc1ccc(CN(CCc2ccccc2)C(=O)CN(C(=O)NC(C)(C)C)C(C)C)o1 | 26 to 50%
C=CCN(Cc1nccn1Cc1ccccc1F)C(=O)C1CCCC1 | 26 to 50%
COc1ccc(-c2nnc(SCc3ccc(C#N)cc3)n2-c2ccc(C)cc2)cc1 | 51 to 74%
CCN(C)c1onc(-c2ccccc2)c1CN(CCCOC)C(=O)c1ccco1 | < 25%
CC(NCc1ccccc1)c1nc2ccccc2c(=O)n1-c1ccc(Cl)cc1 (centres unmarked) | 26 to 50%
COCCNC(=O)c1ccc(CSc2nnc(-c3ccc(C)cc3)n2-c2ccccc2F)cc1 | < 25%
CCN(CC)c1onc(-c2ccc(F)cc2)c1CN(CCCOC)C(=O)c1ccc2c(c1)OCO2 | 26 to 50%
COc1ccc(C(=O)c2ccccc2)c(O)c1O | < 25%
CN(C)c1nc(N(C)C)nc(N(C)C)n1 | 51 to 74%

Give mOREG (Mus musculus) inhibition at 4 µM for Cc1cccc(NC(=O)CCC2CCN(C(=O)CCOc3ccccc3)CC2)c1 51 to 74%

Field entry: COCCN(Cc1c(-c2ccccc2)noc1N(C)C1CCCCC1)C(=O)c1ccccc1OC 26 to 50%

Field entry: CN(C)c1ccc(C(=O)N2CCOC(COCc3ccccc3F)C2)cc1 (centres unmarked) < 25%

Field entry: COc1cccc(-c2nnc(SCCCC(=O)N3CCN(C(=O)CC(C)(C)C)C(C)C3)n2-c2ccc(C)cc2)c1 (centres unmarked) 51 to 74%

Field entry: CCOC(=O)C(c1ccc(OC)c(OC)c1)C1C=CC(NC(=O)c2ccc3c(c2)OCO3)C1 (centres unmarked) < 25%

Field entry: Cc1ccc(-c2nnc(SCCCC(=O)N3CCN(C(=O)c4cccc(F)c4)C(C)C3)n2-c2ccc(C)cc2)cc1 (centres unmarked) 26 to 50%

Field entry: Cc1ccccc1C(=O)N[C@@H]1CCCCC1NC(=O)C1CCN(C(=O)C23CC4CC(CC(C4)C2)C3)CC1 (some centres unmarked) 26 to 50%

###

- TGT: OR10/OR7 (Anopheles gambiae, UniProt B5U0U7+Q7QCC7)
- Sequence (B5U0U7 entry or part of it, one chain of several): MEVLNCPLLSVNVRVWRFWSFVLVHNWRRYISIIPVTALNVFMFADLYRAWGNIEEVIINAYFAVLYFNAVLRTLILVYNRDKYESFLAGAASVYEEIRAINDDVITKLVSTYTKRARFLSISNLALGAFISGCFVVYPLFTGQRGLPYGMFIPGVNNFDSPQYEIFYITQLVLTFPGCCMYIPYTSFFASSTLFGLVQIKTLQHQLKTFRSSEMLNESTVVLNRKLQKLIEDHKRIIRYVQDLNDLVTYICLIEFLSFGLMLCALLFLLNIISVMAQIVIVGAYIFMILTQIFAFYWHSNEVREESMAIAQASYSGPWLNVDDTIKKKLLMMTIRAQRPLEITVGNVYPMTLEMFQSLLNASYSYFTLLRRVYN
- TEST: Ca2+-imaging of stable HEK293T cell line OR10/OR7
- Type: cell-based
- COND: HEK-293T; compound applied at 4 μM; read-out: Percent Inhibition OR10 OR7
METRIC: inhibition at 4 µM

MOLECULE | inhibition at 4 µM
Cc1cc(C)c2c(c1C(=O)N1CCC3(CC1)C(=O)NCN3c1ccccc1)CC(C)(C)C2=O | 26 to 50%
CCCCCCCC(=O)N1CCCC(C(=O)NC2CCCC[C@H]2NC(=O)c2ccccc2C)C1 (stereo partly drawn) | < 25%
O=C(c1c(F)c(F)cc(F)c1F)N1CCOC(Cc2ccccc2)C1 (stereo not drawn) | 51 to 74%
COc1ccc(C(=O)c2ccccc2)c(O)c1O | 51 to 74%
COc1ccc(OCC(=O)N2CCOC(Cc3ccccc3)C2)cc1 (stereo not drawn) | < 25%

So what does the record say about inhibition at 4 µM for Cc1c(C(=O)NCc2ccco2)cnn1-c1ccccc1 ? 51 to 74%

Field entry: COc1ccccc1CC(=O)N1CCOC(COc2ccc(C)cc2)C1 (stereo not drawn) < 25%

Field entry: O=C(c1ccco1)N(Cc1ccco1)Cc1nccn1Cc1ccccc1F 51 to 74%

Field entry: CCOC(=O)C(c1cccc(OC)c1)C1C=CC(NC(=O)c2cccs2)C1 (stereo not drawn) < 25%

###

- TGT: serotonin receptor (5HT3) (Mus musculus, UniProt P23979)
- Construct: Full-length cDNAs for mosquito (Anopheles gambiae) odorant receptor; expressed in transfected cells
- Sequence (P23979 24-489): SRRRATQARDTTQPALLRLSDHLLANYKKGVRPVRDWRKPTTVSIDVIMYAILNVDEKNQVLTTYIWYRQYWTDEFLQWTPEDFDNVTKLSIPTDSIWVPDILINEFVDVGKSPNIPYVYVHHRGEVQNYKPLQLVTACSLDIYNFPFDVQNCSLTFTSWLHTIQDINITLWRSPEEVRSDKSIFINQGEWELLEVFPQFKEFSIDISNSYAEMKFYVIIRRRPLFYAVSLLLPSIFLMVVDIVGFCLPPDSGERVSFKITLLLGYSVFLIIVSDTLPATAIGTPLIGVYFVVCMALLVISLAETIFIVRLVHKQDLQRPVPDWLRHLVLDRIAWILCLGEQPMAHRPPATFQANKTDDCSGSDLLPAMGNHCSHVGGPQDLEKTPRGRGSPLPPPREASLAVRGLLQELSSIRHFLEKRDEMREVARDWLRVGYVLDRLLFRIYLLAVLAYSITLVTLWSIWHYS
- TEST: Ca2+-imaging of stable Flip-In T-Rex cell line 5HT3
- Assay type: cell-based
- COND: compound applied at 4 μM; read-out: Percent Inhibition 5HT3
Quick reference: inhibition at 4 µM of the listed items.

Examples with answers:
COMPOUND | TGT | REPORTED_RESULT
COc1cccc(-c2nnc(SCCCC(=O)N3CCN(C(=O)CC(C)(C)C)C(C)C3)n2-c2ccc(C)cc2)c1 (centres unmarked) | serotonin receptor (5HT3) (Mus musculus, UniProt P23979) | < 25%
C=CCOc1cccc(C(=O)N2CCCC(C(=O)c3ccccc3OC)C2)c1 (centres unmarked) | serotonin receptor (5HT3) (Mus musculus, UniProt P23979) | < 25%
COc1ccccc1CC(=O)N1CCOC(COc2ccc(C)cc2)C1 (centres unmarked) | serotonin receptor (5HT3) (Mus musculus, UniProt P23979) | < 25%
O=C(NCCC(=O)N1CCOC(COCc2ccc(F)cc2Cl)C1)OCc1ccccc1 (centres unmarked) | serotonin receptor (5HT3) (Mus musculus, UniProt P23979) | < 25%

Give serotonin receptor (5HT3) (Mus musculus, UniProt P23979) inhibition at 4 µM for CN(C)c1nc(N(C)C)nc(N(C)C)n1 26 to 50%

###

- TGT: OR28/OR7 (Anopheles gambiae, UniProt A0A1S4GFY3+Q7QCC7)
- Sequence (A0A1S4GFY3 entry or part of it): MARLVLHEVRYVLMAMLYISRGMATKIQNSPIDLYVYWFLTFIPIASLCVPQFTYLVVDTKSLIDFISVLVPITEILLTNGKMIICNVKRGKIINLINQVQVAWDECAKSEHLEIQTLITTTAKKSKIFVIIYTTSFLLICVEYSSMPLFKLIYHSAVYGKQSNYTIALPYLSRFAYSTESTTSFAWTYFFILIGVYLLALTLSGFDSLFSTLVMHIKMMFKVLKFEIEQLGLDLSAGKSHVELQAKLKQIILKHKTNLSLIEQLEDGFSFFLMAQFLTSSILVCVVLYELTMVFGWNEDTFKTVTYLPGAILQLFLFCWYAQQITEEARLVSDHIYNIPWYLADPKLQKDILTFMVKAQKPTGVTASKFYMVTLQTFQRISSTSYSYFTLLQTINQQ
- Sequence (Q7QCC7 whole entry): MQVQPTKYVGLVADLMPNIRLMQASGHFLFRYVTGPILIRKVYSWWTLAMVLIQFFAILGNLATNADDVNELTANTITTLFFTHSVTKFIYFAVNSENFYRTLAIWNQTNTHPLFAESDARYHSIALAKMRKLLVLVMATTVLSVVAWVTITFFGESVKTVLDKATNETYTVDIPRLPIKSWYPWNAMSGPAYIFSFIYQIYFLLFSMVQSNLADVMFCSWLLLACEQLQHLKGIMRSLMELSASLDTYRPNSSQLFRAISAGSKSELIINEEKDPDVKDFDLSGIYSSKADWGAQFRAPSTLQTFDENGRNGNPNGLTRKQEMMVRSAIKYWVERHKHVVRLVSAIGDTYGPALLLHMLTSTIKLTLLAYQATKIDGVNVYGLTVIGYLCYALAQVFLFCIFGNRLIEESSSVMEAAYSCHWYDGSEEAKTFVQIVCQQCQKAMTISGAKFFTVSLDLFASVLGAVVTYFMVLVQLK
- TEST: Ca2+-imaging of stable HEK293T cell line OR28/OR7
- Format: cell-based
- COND: Table B; read-out: IC50 OR28
METRIC: IC50

Examples with answers:
COMPOUND | IC50
C=CCN(Cc1nccn1Cc1ccc(Cl)c(Cl)c1)C(=O)c1ccccc1F [RU-0047955] | < 100 nM
CCc1c(C(=O)NCc2cccnc2)cnn1-c1ccccc1 [RU-0048504] | < 100 nM
CCOC(=O)C(c1ccc(OC)c(OC)c1)C1C=CC(NC(=O)c2ccc3c(c2)OCO3)C1 (centres unmarked) [RU-0049030] | < 100 nM
CN(C)c1ccc(C(=O)N2CCOC(COCc3ccccc3F)C2)cc1 (centres unmarked) [RU-0050325] | < 100 nM
CCc1cc(N2CCCC2)nc(SCc2ccc(C(=O)N3CCOCC3)o2)n1 [RU-0047568] | < 100 nM

So what does the record say about IC50 for COc1ccc(-n2c(Cc3ccccc3)nnc2SCCCC(=O)N2CCN(C(=O)c3ccc(C(F)(F)F)cc3)C(C)C2)cc1 (centres unmarked) [RU-0071828] ? < 100 nM

Field entry: COCCN(Cc1cc(Cl)ccc1OS(=O)(=O)c1ccc(F)cc1)C(=O)C1CCC1 [RU-0035287] < 100 nM

Field entry: COc1cc(OC)cc(C2NC(=O)N(C)C3=C2C(=O)N(C2CCCCC2)C3)c1 (centres unmarked) [RU-0047750] > 1000 nM

Field entry: CCN(CC)c1onc(-c2ccccc2)c1CN(CC1CCCO1)C(=O)c1ccco1 (centres unmarked) [RU-0036855] < 100 nM

Field entry: COc1ccccc1CCC(=O)N1CCC(CCC(=O)Nc2ccccc2)CC1 [RU-0032455] < 100 nM

Field entry: COc1cccc(NC(=O)CCC2CCN(C(=O)CSc3ccccc3)CC2)c1 [RU-0032474] < 100 nM

###

Quick reference: inhibition at 4 µM of the listed items.
- TGT: OR10/OR7 (Anopheles gambiae, UniProt B5U0U7+Q7QCC7)
- TEST: Ca2+-imaging of stable HEK293T cell line OR10/OR7
- Type: cell-based
- COND: HEK-293T; compound applied at 4 μM; read-out: Percent Inhibition OR10 OR7

Examples with answers:
COMPOUND | inhibition at 4 µM
CCc1c(C(=O)NCc2cccnc2)cnn1-c1ccccc1 [RU-0048504] | 51 to 74%
CCOC(=O)c1c(NC(C)=O)c(-c2ccc(OC)cc2)cn1Cc1ccccc1 [RU-0077733] | 26 to 50%
COc1ccc(-n2c(Cc3ccccc3)nnc2SCCCC(=O)N2CCN(C(=O)c3ccc(C(F)(F)F)cc3)C(C)C2)cc1 (stereo not drawn) [RU-0071828] | 26 to 50%
C=CCN(Cc1nccn1Cc1ccccc1F)C(=O)c1cccc(F)c1 [RU-0058232] | > 75%
C=CCN(Cc1nccn1Cc1ccc(Cl)c(Cl)c1)C(=O)c1ccccc1F [RU-0047955] | > 75%

So what does the record say about inhibition at 4 µM for COC(=O)C(Cc1ccccc1)NC(=O)C1CC1(c1ccccc1)c1ccccc1 (stereo not drawn) [RU-0028029] ? 26 to 50%

Field entry: Cc1ccc(-n2nc(C)c(CCC(=O)N3CCc4ccccc4C3)c2C)cc1Cl [RU-0026074] 26 to 50%

Field entry: COCCN(Cc1cc(Cl)ccc1OS(=O)(=O)c1ccc(F)cc1)C(=O)C1CCC1 [RU-0035287] < 25%

Field entry: Cc1cccc(Cn2ccnc2CN(C(=O)c2ccccc2F)C2CCCCC2)c1 [RU-0047851] > 75%

Field entry: O=C(c1ccco1)N(Cc1nccn1Cc1c(F)cccc1Cl)C1CC1 [RU-0048046] 51 to 74%

Field entry: C=CCN(Cc1nccn1Cc1ccccc1C)C(=O)CC(C)C [RU-0058298] > 75%

Field entry: CN(C)c1nc(N(C)C)nc(N(C)C)n1 [RU-0000619] < 25%

Field entry: COCCCN(CC(=O)N1CCc2sccc2C1c1ccc(OC)cc1)C(=O)C(C)(C)CCl (stereo not drawn) [RU-0069950] > 75%

Field entry: COCCN(Cc1c(-c2ccccc2)noc1N(C)C1CCCCC1)C(=O)c1ccccc1OC [RU-0037275] < 25%

Field entry: O=C(CCC1CCN(C(=O)c2cccc(-n3cccn3)c2)CC1)Nc1ccccc1 [RU-0032465] < 25%

Field entry: CCNc1nc(NC(C)C)nc(N(C#N)Cc2ccccc2)n1 [RU-0015806] 26 to 50%

Field entry: CC(NCc1ccccc1)c1nc2ccccc2c(=O)n1-c1ccc(Cl)cc1 (stereo not drawn) [RU-0072535] < 25%

Field entry: CCCCc1nc(CN2CCc3c([nH]c4ccccc34)C2c2cccc(OC)c2OC)c[nH]1 (stereo not drawn) [RU-0031879] < 25%

Hey, just so you know, these numbers are from patent US20130324522A1.
